Data origin, for the record: patent US20210283163A1

- System: naive mice
- Format: in vivo, mouse
- Experimental Context: naive mice; 1 mM, 5 μL
Quantity: wiping (pain) after intradermal cheek injection

miR-155: mmu-miR-155: uuaaugcuaauugugauaggggu (SEQ ID NO: 7) (UUAAUGCUAAUUGUGAUAGGGGU; listed as RNA, chemistry not given here) : Neither did
miR-326: mmu-miR-326: gggggcagggccuuugugaaggcg (SEQ ID NO: 8) (GGGGGCAGGGCCUUUGUGAAGGCG; listed as RNA, chemistry not given here) : Neither did
hsa-miR-711: hsa-miR-711: gggacccagggagagagacguaag (SEQ ID NO: 9) (GGGACCCAGGGAGAGAGACGUAAG; listed as RNA, chemistry not given here) : failed to elicit wiping
hsa-miR-642b-3p: hsa-miR-642b-3p: agacacauuuggagagggaccc (SEQ ID NO: 10) (AGACACAUUUGGAGAGGGACCC; listed as RNA, chemistry not given here) : failed to elicit wiping
